- measurement description: Plasma protein binding in dog plasma incubated for 4 hrs
- Assay type: ADME, cell-free, Canis lupus familiaris
- condition label: read-out: PPB (converted)
readout label: fraction unbound at 4 h

record smiles | reported value
CC(=O)O[C@@]12CO[C@@H]1C[C@H](O)[C@@]1(C)C(=O)[C@H](O)C3=C(C)[C@@H](OC(=O)[C@H](OC(=O)CCC(=O)NCCCC[C@H](NC(=O)CC[C@@H](NC(=O)[C@H](C)NC(=O)/C=C/c4ccc(F)cc4Cl)C(N)=O)C(=O)O)[C@@H](NC(=O)OC(C)(C)C)c4ccccc4)C[C@@](O)([C@@H](OC(=O)c4ccccc4)[C@H]21)C3(C)C | 0.003

---

- measurement description: Cmax in Beagle dog at 1 mg/kg,iv measured upto 24 hrs
- Assay type: ADME, organism-based, Canis lupus familiaris
- Set-up: dose 1 mg/kg, time < 24 hrs, route iv
- condition label: in vivo

record smiles | Cmax [ng/mL]
CC(=O)O[C@@]12CO[C@@H]1C[C@H](O)[C@@]1(C)C(=O)[C@H](O)C3=C(C)[C@@H](OC(=O)[C@H](OC(=O)CCC(=O)NCCCC[C@H](NC(=O)CC[C@@H](NC(=O)[C@H](C)NC(=O)/C=C/c4ccc(F)cc4Cl)C(N)=O)C(=O)O)[C@@H](NC(=O)OC(C)(C)C)c4ccccc4)C[C@@](O)([C@@H](OC(=O)c4ccccc4)[C@H]21)C3(C)C | 3880

---

- measurement description: AUC (0-infinity) in rat at 8 mg/kg,iv measured upto 24 hrs
- Assay type: ADME, organism-based
- Set-up: time < 24 hrs, dose 8 mg/kg, route iv
- condition label: in vivo

record smiles | AUC(0-inf) [ng·h/mL]
CC(=O)O[C@@]12CO[C@@H]1C[C@H](O)[C@@]1(C)C(=O)[C@H](O)C3=C(C)[C@@H](OC(=O)[C@H](OC(=O)CCC(=O)NCCCC[C@H](NC(=O)CC[C@@H](NC(=O)[C@H](C)NC(=O)/C=C/c4ccc(F)cc4Cl)C(N)=O)C(=O)O)[C@@H](NC(=O)OC(C)(C)C)c4ccccc4)C[C@@](O)([C@@H](OC(=O)c4ccccc4)[C@H]21)C3(C)C | 46100

---

- measurement description: Volume of distribution at steady state in male Beagle dog at 2 mg/kg,iv measured upto 24 hrs
- Format: ADME, organism-based, Canis lupus familiaris
- condition label: in vivo, read-out: Vdss
readout label: Vd

record smiles | reported value
CC(=O)O[C@@]12CO[C@@H]1C[C@H](O)[C@@]1(C)C(=O)[C@H](O)C3=C(C)[C@@H](OC(=O)[C@H](OC(=O)CCC(=O)NCCCC[C@H](NC(=O)CC[C@@H](NC(=O)[C@H](C)NC(=O)/C=C/c4ccc(F)cc4Cl)C(N)=O)C(=O)O)[C@@H](NC(=O)OC(C)(C)C)c4ccccc4)C[C@@](O)([C@@H](OC(=O)c4ccccc4)[C@H]21)C3(C)C | 0.09 L/kg

---

- measurement description: Half life in female rat at 8 mg/kg,iv measured upto 24 hrs
- Format: ADME, organism-based
- condition label: in vivo

record smiles | half-life (min)
CC(=O)O[C@@]12CO[C@@H]1C[C@H](O)[C@@]1(C)C(=O)[C@H](O)C3=C(C)[C@@H](OC(=O)[C@H](OC(=O)CCC(=O)NCCCC[C@H](NC(=O)CC[C@@H](NC(=O)[C@H](C)NC(=O)/C=C/c4ccc(F)cc4Cl)C(N)=O)C(=O)O)[C@@H](NC(=O)OC(C)(C)C)c4ccccc4)C[C@@](O)([C@@H](OC(=O)c4ccccc4)[C@H]21)C3(C)C | 15.2

---

- measurement description: Tmax in male rat at 2 mg/kg,iv measured upto 24 hrs
- Assay type: ADME, organism-based
- condition label: in vivo
readout label: Tmax (min)

record smiles | reported value
CC(=O)O[C@@]12CO[C@@H]1C[C@H](O)[C@@]1(C)C(=O)[C@H](O)C3=C(C)[C@@H](OC(=O)[C@H](OC(=O)CCC(=O)NCCCC[C@H](NC(=O)CC[C@@H](NC(=O)[C@H](C)NC(=O)/C=C/c4ccc(F)cc4Cl)C(N)=O)C(=O)O)[C@@H](NC(=O)OC(C)(C)C)c4ccccc4)C[C@@](O)([C@@H](OC(=O)c4ccccc4)[C@H]21)C3(C)C | 4.98

---

- measurement description: Toxicity in Beagle dog assessed as maximal non-toxic dose at iv administration
- Format: organism-based, Canis lupus familiaris
- condition label: in vivo, read-out: MNTD
readout label: NOAEL

record smiles | readout label | reported value
CC(=O)O[C@@]12CO[C@@H]1C[C@H](O)[C@@]1(C)C(=O)[C@H](O)C3=C(C)[C@@H](OC(=O)[C@H](OC(=O)CCC(=O)NCCCC[C@H](NC(=O)CC[C@@H](NC(=O)[C@H](C)NC(=O)/C=C/c4ccc(F)cc4Cl)C(N)=O)C(=O)O)[C@@H](NC(=O)OC(C)(C)C)c4ccccc4)C[C@@](O)([C@@H](OC(=O)c4ccccc4)[C@H]21)C3(C)C | NOAEL | 6 mg/kg

---

- measurement description: AUC (0-infinity) in Beagle dog at 4 mg/kg,iv measured upto 24 hrs
- Assay type: ADME, organism-based, Canis lupus familiaris
- Parameters: time < 24 hrs, dose 4 mg/kg, route iv
- condition label: in vivo

record smiles | AUC(0-inf)
CC(=O)O[C@@]12CO[C@@H]1C[C@H](O)[C@@]1(C)C(=O)[C@H](O)C3=C(C)[C@@H](OC(=O)[C@H](OC(=O)CCC(=O)NCCCC[C@H](NC(=O)CC[C@@H](NC(=O)[C@H](C)NC(=O)/C=C/c4ccc(F)cc4Cl)C(N)=O)C(=O)O)[C@@H](NC(=O)OC(C)(C)C)c4ccccc4)C[C@@](O)([C@@H](OC(=O)c4ccccc4)[C@H]21)C3(C)C | 17300 ng·h/mL

---

- measurement description: Clearance in female Beagle dog at 2 mg/kg,iv measured upto 24 hrs
- Format: ADME, organism-based, Canis lupus familiaris
- condition label: in vivo
readout label: clearance (L/h/kg)

record smiles | readout label | reported value
CC(=O)O[C@@]12CO[C@@H]1C[C@H](O)[C@@]1(C)C(=O)[C@H](O)C3=C(C)[C@@H](OC(=O)[C@H](OC(=O)CCC(=O)NCCCC[C@H](NC(=O)CC[C@@H](NC(=O)[C@H](C)NC(=O)/C=C/c4ccc(F)cc4Cl)C(N)=O)C(=O)O)[C@@H](NC(=O)OC(C)(C)C)c4ccccc4)C[C@@](O)([C@@H](OC(=O)c4ccccc4)[C@H]21)C3(C)C | clearance | 0.302

---

- measurement description: Clearance in rat at 8 mg/kg,iv measured upto 24 hrs
- Type: ADME, organism-based
- condition label: in vivo
readout label: clearance (mL/min/kg)

record smiles | measurement units | reported value
CC(=O)O[C@@]12CO[C@@H]1C[C@H](O)[C@@]1(C)C(=O)[C@H](O)C3=C(C)[C@@H](OC(=O)[C@H](OC(=O)CCC(=O)NCCCC[C@H](NC(=O)CC[C@@H](NC(=O)[C@H](C)NC(=O)/C=C/c4ccc(F)cc4Cl)C(N)=O)C(=O)O)[C@@H](NC(=O)OC(C)(C)C)c4ccccc4)C[C@@](O)([C@@H](OC(=O)c4ccccc4)[C@H]21)C3(C)C | mL/min/kg | 2.97

---

- measurement description: Volume of distribution at steady state in male rat at 2 mg/kg,iv measured upto 24 hrs
- Assay type: ADME, organism-based
- condition label: in vivo, read-out: Vdss

record smiles | measurement units | Vd
CC(=O)O[C@@]12CO[C@@H]1C[C@H](O)[C@@]1(C)C(=O)[C@H](O)C3=C(C)[C@@H](OC(=O)[C@H](OC(=O)CCC(=O)NCCCC[C@H](NC(=O)CC[C@@H](NC(=O)[C@H](C)NC(=O)/C=C/c4ccc(F)cc4Cl)C(N)=O)C(=O)O)[C@@H](NC(=O)OC(C)(C)C)c4ccccc4)C[C@@](O)([C@@H](OC(=O)c4ccccc4)[C@H]21)C3(C)C | L/kg | 0.076

---

- measurement description: Toxicity in female Sprague-Dawley rat assessed as maximal non-toxic dose at iv administration
- Assay type: organism-based
- condition label: in vivo, read-out: MNTD
readout label: NOAEL (mg/kg)

record smiles | reported value
CC(=O)O[C@@]12CO[C@@H]1C[C@H](O)[C@@]1(C)C(=O)[C@H](O)C3=C(C)[C@@H](OC(=O)[C@H](OC(=O)CCC(=O)NCCCC[C@H](NC(=O)CC[C@@H](NC(=O)[C@H](C)NC(=O)/C=C/c4ccc(F)cc4Cl)C(N)=O)C(=O)O)[C@@H](NC(=O)OC(C)(C)C)c4ccccc4)C[C@@](O)([C@@H](OC(=O)c4ccccc4)[C@H]21)C3(C)C | 2

---

- measurement description: AUC (0-t) in female rat at 4 mg/kg,iv measured upto 24 hrs
- Type: ADME, organism-based
- Design: time < 24 hrs, dose 4 mg/kg, route iv
- condition label: in vivo

record smiles | AUC(0-t) at 24 h, ng·h/mL
CC(=O)O[C@@]12CO[C@@H]1C[C@H](O)[C@@]1(C)C(=O)[C@H](O)C3=C(C)[C@@H](OC(=O)[C@H](OC(=O)CCC(=O)NCCCC[C@H](NC(=O)CC[C@@H](NC(=O)[C@H](C)NC(=O)/C=C/c4ccc(F)cc4Cl)C(N)=O)C(=O)O)[C@@H](NC(=O)OC(C)(C)C)c4ccccc4)C[C@@](O)([C@@H](OC(=O)c4ccccc4)[C@H]21)C3(C)C | 13000
